- assay_notes: NCI Yeast Anticancer Drug Screen. Data for the rad50 strain (AID 155);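 further: 0% = growth of vehicle-only cultures of the same strain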
- condition_notes: S. cerevisiae rad50 strain growth inhibition; at 50.0 µM
Compounds without any hit were thinned out: in the full panel of roughly 79,000, 15% have a hit. The source made the active and inactive calls. No stated cut-off is given here; in the data, active means growth inhibition above about 70%; inactive means the rest.
Classes used: 1 for active, 0 for inactive

| compound | class |
| --- | --- |
| CC(C)CCOC(=O)Nc1cccc(Cl)c1 | 0 |
| CC(/C=C/c1cccs1)=N\NC(=S)NCC(C)C | 1 |
| COc1ccccc1NC(=O)C1=CNC(C)=C(C(=O)Nc2ccccc2OC)C1/C=C/c1ccccc1 (stereo unspecified) | 0 |
| CCCCCCCCN(CCCCCCCC)C(=O)C(C)O (stereo unspecified) | 1 |
| CCOc1ccc(/C=N\NC(=O)c2ccco2)cc1OCC | 0 |
| C1=C(c2ccccc2)CCc2ccccc21 | 0 |
| Nc1ccc(N)c2c1C(=O)c1ccccc1C2=O | 1 |
| CC(C)CCCC(C)C1CCC2C3CCC4=CC(O)CCC4(C)C3CCC12C (stereo unspecified) | 1 |
| CCCSc1n[nH]c(=S)s1 | 0 |
| CCc1cccc(C(C)(C)C)c1NC(=S)N/C=C(\C#N)C(=O)c1ccc2ccccc2c1 | 0 |
| Cc1nc2[nH]cc(C)c2c(=O)[nH]1 | 0 |
| O=C(/C(Cl)=N/O)c1ccccc1 | 1 |
| Cc1cc(Cl)cc2c1NC(=O)C2(O)C(C)C(=O)c1ccc(Cl)cc1 (stereo unspecified) | 1 |
| Oc1cc(Cl)cc2c1-c1ccc(Cl)cc1C2O (stereo unspecified) | 1 |
| Cc1ccnc(-c2cc(C)ccn2)c1 | 0 |
| O=[N+]([O-])c1ccc(CSSCc2ccc([N+](=O)[O-])cc2)cc1 | 0 |
| CCn1nc(-c2ccccc2)c2c1N(C)c1ccccc1-n1c(-c3ccccc3)nnc1-2 | 1 |
| CCc1n[nH]c(CC)c1CCCCCCOc1ccc(OC)cc1Cl | 1 |
| COC(=O)c1nnc(C(=O)OC)c2c1[nH]c1ccccc12 | 1 |
| CC(C)N(C(=O)C12C3C4C5(C#N)C3C1(C#N)C5C42I)C(C)C (stereo unspecified) | 1 |
| Cc1c2cc[n+](C)cc2c(COC2OC(CO)C(O)C2O)c2c3ccccc3n(C)c12 (stereo unspecified) | 0 |
| Cc1cccc2nc3nc(Cl)c(Cl)nc3n12 | 1 |
| CC1(c2ccccc2)NC(=O)N(CC(=O)N(c2ccccc2)c2ccccc2)C1=O (stereo unspecified) | 0 |
| Clc1ccc(CNc2ccc(Br)cc2)cc1 | 1 |
| CCCC(C1=C(O)CC(C)CC1=O)C1=C(O)CC(C)CC1=O (stereo unspecified) | 0 |
| CCOC(=O)C1c2[nH]c3ccccc3c2CCN1C(=O)c1ccc(OC)o1 (stereo unspecified) | 1 |
| O[C@H](CNCCS)[C@@H](O)CNCCS | 1 |
| CN1C(=S)C(=N)OC1c1ccccc1F (stereo unspecified) | 1 |
| CCOC(=O)C(C#N)c1cc(O)c(C(C#N)C(=O)OCC)cc1O (stereo unspecified) | 0 |
| CCc1nc2ccc(N=NN(C)C)cc2[nH]1 | 1 |
| CC(CCCOC(c1ccccc1)(c1ccccc1)c1ccccc1)OC(=O)Nc1ccccc1 (stereo unspecified) | 1 |
| O=C(N/C(=C\c1ccc(Oc2ccc(Cl)c(Cl)c2)cc1)c1nc2ccccc2[nH]1)c1ccccc1 | 1 |
| N#[N+]c1c([O-])ccc2nc3ccccc3nc12 | 0 |
| CC1SC2=NC3=C(c4ccccc4C3=O)C(c3ccc(Cl)cc3)N2C1=O (stereo unspecified) | 0 |
| CCCCCCCCCCCC(O)CN1CCOCC1 (stereo unspecified) | 1 |
| O=C1C2C3CCC(O3)C2C(=O)N1c1cccc2ccccc12 (stereo unspecified) | 0 |
| CC(C)O[C@H]1N(C2CC(N=[N+]=[N-])C(CO)O2)C(=O)NC(=O)[C@]1(C)Br (stereo partly specified) | 1 |
| OCc1c(-c2cccc3ccccc23)sc(-c2cccc3ccccc23)c1CO | 1 |
| COc1cccc(/C=C/C(C)=O)c1OC | 1 |
| CCC1CCC2C3CC=C4CC(OC(C)=O)C(N)CC4(C)C3CCC12C (stereo unspecified) | 1 |
| N=C(N)c1ccc(SCCCCCSc2ccc(C(=N)N)cc2)cc1 | 0 |

====

- assay_notes: NCI Yeast Anticancer Drug Screen. Data for the cln2 rad14 strain (AID 165);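 further: 0% = growth equal to vehicle treated cultures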
- condition_notes: S. cerevisiae cln2 rad14 strain, at 50.0 µM (retest, dose inferred, filed as 5.0)
Compounds without any hit were thinned out: in the full panel of roughly 79,000, 15% have a hit. The source made the active and inactive calls. Cut-off read from the data, not from the text of the source: active = growth inhibition above about 70%; inactive = the rest.
Classes used: yes (active), no (inactive)

| compound | class |
| --- | --- |
| COC(=O)C1(C)CCCC2(C)C3CC(=O)C(C(C)C)=CC3(O)CCC12 (stereo not drawn) | no |
| O=C(O)CCC(O)=C1S(=O)(=O)OCCOS1(=O)=O | no |
| O=C1c2ccccc2C(=O)c2ncccc21 | yes |
| O=C(Nc1ccc(Cl)cc1)Nc1nnc2nc(C(C(=O)/C=C/c3ccccc3)c3nc4nnc(NC(=O)Nc5ccc(Cl)cc5)n4[nH]c3=O)c(=O)[nH]n12 | no |
| Cc1ccc(C)c(N2C(=O)C(=O)c3c(C)ccc(C)c32)c1 | no |
| CS(=O)(=O)OCC(COS(C)(=O)=O)C(c1ccccc1)c1ccccc1Br (stereo not drawn) | no |
| CCCCCCCCCCOC(=O)c1ccccn1 | yes |
| CSC(=S)n1nc(-c2ccccc2)c(N=Nc2ccc(Br)cc2)c1-c1ccccc1 | no |
| Cc1cccc2c1nc1ccccc1[n+]2C | yes |
| COc1cc(/C=C2/C(=O)N(C(=O)c3ccccc3O)N=C2C)cc(OC)c1OC | no |
| Cc1ccc(-c2n[nH]c(=O)n2/N=C\c2ccccc2)cc1 | no |
| Cc1cccc(NC(=S)N/N=C(/c2ccccc2)c2ccccn2)c1 | yes |
| O=C1NCCCNCCCNCCCNC(=O)c2cccc1n2 | no |
| CCOc1cc2c(OCc3ccccc3)cc3c4cc(OC)c(OC)cc4c[n+](C)c3c2cc1OC | yes |
| Clc1ncccc1-n1cccc1/C=N\N=C/c1cccn1-c1cccnc1Cl | yes |
| O=c1ccc([N+](=O)[O-])c[nH]1.[Ag] | yes |
| CCCCCCCCCCCC(=O)OCCOC(=O)CCCCCCCCCCC | no |
| C1CCC2CC3(CCNCC3)CCC2C1 (stereo not drawn) | yes |
| CCC(=O)NC1=CCC(C(C)(C)C)CC1 (stereo not drawn) | no |
| O=C1CSC(c2c[nH]c3ccccc23)N1c1cccc(Cl)c1 (stereo not drawn) | yes |
| CCCCCCCCN(CCCCCCCC)C(=O)C(C)O (stereo not drawn) | yes |
| Cc1ccc2c(ccc3ccccc32)c1 | no |
| CCN1/C(=C\c2cc(C)nc(-c3ccccc3)[n+]2C)C=Cc2ccccc21 | yes |
| O=C1c2ccccc2C(=O)c2sc(Nc3ccc([N+](=O)[O-])cc3)nc21 | yes |
| Oc1cc2ccccc2c2c1ccc1ccccc12 | yes |
| Cc1cc(N2C(=O)CCSC2=S)ccc1Cl | no |
| Cc1ccc(C2(O)c3ccccc3-c3ccccc32)cc1 | yes |
| Cc1ccc2nc(N/N=C/c3cccc(C)n3)cc(C)c2c1 | no |
| CC(=O)N1c2ccccc2Sc2c1ccc1ccccc21 | yes |
| OCCc1c2ccccc2cc2ccccc12 | no |
| CC(=O)N1OC2(C)c3ccccc3C1(C)c1ccccc12 | yes |
| NCCSC1(O)C(=O)c2ccccc2C1=O | no |
| CCOC(=O)C(=Cn1c(=S)[nH]c2ccc([N+](=O)[O-])cc21)C(=O)OCC | no |
| CN(C)C(=O)c1cc(Br)cc(-c2ccccc2)c1O | no |
| CCCCCCCCCCN(CCCCCCCCCC)C(=O)COc1c2cc(C(C)(C)C)cc1Cc1cc(C(C)(C)C)cc(c1OCC(=O)N(CCCCCCCCCC)CCCCCCCCCC)Cc1cc(C(C)(C)C)cc(c1OCC(=O)N(CCCCCCCCCC)CCCCCCCCCC)Cc1cc(C(C)(C)C)cc(c1OCC(=O)N(CCCCCCCCCC)CCCCCCCCCC)C2 | yes |
| O=C1c2ccccc2C(=O)c2c(NCCNCCO)ccc(O)c21 | no |
| CCCCCCCCCCCCCCCCCC(=O)OC(C)CCC1CCCO1 (stereo not drawn) | no |
| CC/C(=C1\C=CC(=O)S1)C(CC)c1ccc(OC(C)=O)cc1 (stereo not drawn) | yes |

====

- assay_notes: NCI Yeast Anticancer Drug Screen. Data for the mec2-1 strain (AID 157)
- condition_notes: S. cerevisiae mec2-1 strain, at 50.0 µM
About 79,000 compounds went through this panel and 15% of them were active in at least one assay; those are over-represented in the sample as a whole. The source made the active and inactive calls. Rule as the data show it: active = growth inhibition above about 70%; inactive = the rest.
Classes used: T for active, F for inactive

| molecule | class |
| --- | --- |
| COc1ccc(N=Cc2ccccc2O)cc1 | F |
| CCO/C=C1N=C(/C=C/c2ccc(Cl)cc2)OC/1=O | F |
| Nc1nc(Cc2ccccc2)nc(Cc2ccccc2)c1-c1ccccc1 | T |
| COc1cccc2c1C(=O)c1c(O)c3c(c(O)c1C2=O)C[C@@](O)(C(O)CO)C[C@@H]3OC1CC(N(Cc2ccccc2)Cc2ccccc2)C(O)C(C)O1 (some centres undefined) | T |
| O=C(O)c1c2c(cc3c1CC1(Cc4ccccc4C1=O)C3)CCC2 (centres undefined) | T |
| C=CCN1/C(=C/C=C\c2sc3ccccc3[n+]2CC=C)Sc2ccccc21 | T |
| CCSC(=O)/C=C1\CN(C(=O)OC(C)(C)C)C1C(=O)OC(C)(C)C (centres undefined) | F |
| CCCC1=C(c2ccccc2)C(O)(c2ccccc2)C(CCC)C1=O (centres undefined) | T |
| COc1cccc2c1OC(c1ccc(Cl)cc1)C([N+](=O)[O-])=C2 (centres undefined) | T |
